target: T1, Ala mutant of TA0096, SEQ ID NO: 39; experiment: ELISA, coated peptide
T1 peptide: EENMDDQWMQDEAEIGY
observation-type: OD 490/630 nm

binder: G8 (antibody, V domains shown, Chicken variable regions in a mouse chimeric antibody (IgG1); also called anti-PAD4 antibody G8) VH: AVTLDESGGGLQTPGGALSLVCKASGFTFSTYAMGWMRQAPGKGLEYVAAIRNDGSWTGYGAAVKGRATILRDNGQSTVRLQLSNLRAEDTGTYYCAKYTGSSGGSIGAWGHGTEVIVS VL: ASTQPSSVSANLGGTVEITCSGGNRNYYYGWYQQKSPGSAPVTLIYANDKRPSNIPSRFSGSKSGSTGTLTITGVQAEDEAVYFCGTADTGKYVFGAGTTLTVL
assay-result: 1.88
//
binder: E9 (antibody, V domains shown, Chicken variable regions in a mouse chimeric antibody (IgG1); also called anti-PAD4 antibody E9) VH: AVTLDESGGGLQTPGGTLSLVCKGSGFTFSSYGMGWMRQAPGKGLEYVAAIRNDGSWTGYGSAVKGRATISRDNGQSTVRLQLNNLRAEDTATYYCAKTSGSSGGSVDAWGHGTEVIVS VL: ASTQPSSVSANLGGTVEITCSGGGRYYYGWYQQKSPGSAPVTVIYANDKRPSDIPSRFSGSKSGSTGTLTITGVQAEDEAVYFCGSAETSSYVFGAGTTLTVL
assay-result: 1.77
//
binder: A11 (antibody, V domains shown, Chicken variable regions in a mouse chimeric antibody (IgG1); also called anti-PAD4 antibody A11) VH: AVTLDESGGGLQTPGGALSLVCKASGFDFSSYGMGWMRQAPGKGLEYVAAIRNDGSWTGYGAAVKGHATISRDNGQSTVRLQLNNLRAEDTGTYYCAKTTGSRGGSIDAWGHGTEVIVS VL: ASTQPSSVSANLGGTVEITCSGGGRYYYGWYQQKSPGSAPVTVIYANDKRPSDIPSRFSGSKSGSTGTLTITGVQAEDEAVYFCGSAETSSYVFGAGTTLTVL
assay-result: 1.89
//
binder: H7 (antibody, V domains shown, Chicken variable regions in a mouse chimeric antibody (IgG1); also called anti-PAD4 antibody H7) VH: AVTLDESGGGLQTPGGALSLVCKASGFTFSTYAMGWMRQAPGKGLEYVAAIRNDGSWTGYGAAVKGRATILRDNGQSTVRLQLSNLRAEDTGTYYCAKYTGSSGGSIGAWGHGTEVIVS VL: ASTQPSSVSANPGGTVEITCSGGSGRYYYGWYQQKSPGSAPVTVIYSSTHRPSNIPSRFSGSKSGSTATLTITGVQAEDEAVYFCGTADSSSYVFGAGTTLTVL
assay-result: 1.81
